Source listed as paper PMC12136788.

ASSAYED_SYSTEM: T1, UNK ZnF1-6 (called full-length) (human, UniProt Q9C0B0 30-357)
T1 sequence: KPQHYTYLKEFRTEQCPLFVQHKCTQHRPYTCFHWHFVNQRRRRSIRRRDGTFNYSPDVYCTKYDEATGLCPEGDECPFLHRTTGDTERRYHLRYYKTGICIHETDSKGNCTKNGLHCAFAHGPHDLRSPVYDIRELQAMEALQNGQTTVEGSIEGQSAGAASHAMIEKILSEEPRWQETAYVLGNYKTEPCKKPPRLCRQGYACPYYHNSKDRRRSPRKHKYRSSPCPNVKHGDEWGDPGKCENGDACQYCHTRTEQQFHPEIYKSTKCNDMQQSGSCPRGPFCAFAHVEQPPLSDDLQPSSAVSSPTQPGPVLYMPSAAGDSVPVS
ASSAY_COMMENT: nsRBNS (natural sequence RNA bind-n-seq); RBNS binding buffer (assumed for nsRBNS): 25 mM Tris pH 7.5, 150 mM KCl, 3 mM MgCl2, 0.01% Triton X-100, 500 ug/ml BSA, 20 U/ml SUPERase-In, 4 C; UNK is unkempt and MSI1 is Musashi-1; names of the RNAs are library labels; protein concentration not given here; high values mean tight binding
The full ranking holds about 5,800 sequences; the median of “enrichment r” is about 0.68, and the highest 2% start at about 11. A selection follows.
Reported binding signal values for the following binders.
Expressed in enrichment R, but write only the number.

Example cases with answers are listed next.
BINDER	binding signal [enrichment R]
chr1:71064632:71064733:-|3pUTR|ENSG00000132485|msi1|total|mutant (ssRNA) RNA: GGGAGUUCUACAGUCCGACGAUCGCUAAGACAGGAUUACCCCGGCUUGCCUGAACUUUGGGCAUGGAAGAAAGACUGGAAACCCGUUGGAAACAACAUACUUAUGGAAAAGAAAGUCAGCCUUUUUAUGCUGUUAACAGAUGUCAACAGAGGAUUGAGCAUCA	0.548
chrX:13662881:13662996:+|CDS|ENSG00000176896|unk|total|mutant (ssRNA) RNA: GGGAGUUCUACAGUCCGACGAUCUCGAAUUCUCUGUCUUCCCAAGACGUUGCAAAACUCAGUGAAAUGAUUGUGCCUGAAAACCGAGCCAUUCAAUUGAAACCUAAGGAAGAGCAUUUUGGGGAUGGUGACCCUGAAUCCACUCAACAGAGGAUUGAGCAUCA	0.441

For this binder ( chr1:110947961:110948399:-|CDS|ENSG00000121931|control|control|control (ssRNA) RNA: GGGAGUUCUACAGUCCGACGAUCAAGUCAUUUCUUCAAUAAAAAUUAUACCGAAGAUAUUUUCCCAGUGACACCACCGGAGUUAGAAGAAACCAUUCGAGAUGAAAAAAUAAGAAGACUUAAGCAGGUGCUGAGAGAGAAAGACAACAGAGGAUUGAGCAUCA ), measured binding signal is 0.797
